Hey, just so you know, these numbers are from patent US9353090B2.

assay: physchem; settings: pH 6.8, aqueous buffer, kinetic from dmso stock, Solubility (pH 6.8)
Output fulfilled for solubility at 24 h not less than 70 µg/mL; output not fulfilled otherwise.

Kindly determine if solubility at 24 h recorded for "CO[C@@H]1CN(c2cccc(-c3cccc(C)c3OCc3cc(C)c4c(c3)CCN(C3CCOCC3)CC4)n2)CC[C@@H]1C(=O)O" is above or exactly 70 µg/mL.
not fulfilled

Does the compound "COc1cc(COc2ccc(C)cc2-c2csc(N3CC[C@@H](C(=O)O)[C@@H](OC)C3)n2)cc2c1CN(C1CCOCC1)CC2" have recorded solubility at 24 h that is 70 µg/mL or more?
not fulfilled

Hi, just wondering whether "CO[C@@H]1CN(c2cccc(-c3cccc(C)c3OCc3ccc4c(c3C)CCN(C3CCOCC3)C4)n2)CC[C@@H]1C(=O)O" shows solubility at 24 h of 70 µg/mL or higher.
fulfilled

API: above_or_equal(metric=solubility at 24 h, cutoff=70 µg/mL) for item "Cc1ccc(OCc2ccc3c(c2)CCN(C2CCOCC2)CC3)c(-c2csc(N3C[C@@H]4C[C@]4(C(=O)O)C3)n2)c1"
not fulfilled

Check if solubility at 24 h >= 70 µg/mL (inclusive). Item: "COc1cc(COc2c(Cl)cccc2-c2cccc(N3CC[C@@H](C(=O)O)[C@@H](OC)C3)n2)cc2c1CN(C1CCOCC1)CC2"
not fulfilled

Determine whether measured solubility at 24 h meets or exceeds 70 µg/mL for "CO[C@@H]1CN(c2cccc(-c3cccc(C)c3OCc3ccc4c(c3C)CCN(C)CC4)n2)CC[C@@H]1C(=O)O"
not fulfilled

Decide: solubility at 24 h of Cc1c(COc2ccccc2-c2cccc(N3CC[C@@]4(C(=O)O)C[C@H]4C3)n2)ccc2c1CCN(C(C)c1ccccn1)C2 (stereo partly shown) >= 70 µg/mL?
not fulfilled

Hello, I need to know if "CO[C@H]1CN(c2nc(-c3cc(C)ccc3OCc3cc(C)c4c(c3)CCN(C3CCOCC3)C4)cs2)CC[C@H]1C(=O)O" has measured solubility at 24 h not below 70 µg/mL. Thanks!
not fulfilled

Hi, just wondering whether Cc1ccc(OCc2cc(C)c3c(c2)CCN(CC2COCCO2)C3)c(-c2csc(N3CC[C@@]4(C(=O)O)C[C@H]4C3)n2)c1 (stereo partly shown) shows solubility at 24 h of 70 µg/mL or higher.
not fulfilled

Dear colleague, could you confirm whether "COC[C@H]1N(c2cccc(-c3cccc(C)c3OCc3ccc4c(c3)CCN(C3CCOCC3)C4)n2)C[C@@H]2C[C@@]21C(=O)O" has solubility at 24 h at or above 70 µg/mL?
fulfilled

Does the reported solubility at 24 h for "CO[C@H]1CN(c2cccc(-c3cc(C)ccc3OCc3ccc4c(c3)CCN(C3CCOCC3)C4)n2)CC[C@H]1C(=O)O" fall at or above the 70 µg/mL mark?
fulfilled

Exam item: decide whether the reported solubility at 24 h for "CO[C@@H]1CN(c2cccc(-c3cccc(C)c3OCc3cc(C)c4c(c3)CN(C3CCOCC3)C4)n2)CC[C@@H]1C(=O)O" is at least 70 µg/mL.
fulfilled

###

assay: physchem; conditions: pH 4.5, aqueous buffer, kinetic from dmso stock, Solubility (pH 4.5)
readout.kind: solubility at 24 h (µg/mL)
Give your result in µg/mL as a bare value.

According to the records, this compound "COC[C@@H]1N(c2cccc(-c3cccc(C)c3OCc3cc(C)c4c(c3)CCN(C3CCOCC3)C4)n2)C[C@H]2C[C@]21C(=O)O" displays solubility at 24 h of 130

solubility at 24 h reported for this compound "Cc1cc(COc2c(C)cccc2-c2cccc(N3C[C@@H]4C[C@]4(C(=O)O)C3)n2)cc2c1CN(C1COC1)CC2" : 88

# solubility at 24 h of "CO[C@@H]1CN(c2nc(-c3cccc(C)c3OCc3ccc4c(c3F)CCN(C3COC3)CC4)cs2)CC[C@@H]1C(=O)O" = 60.3
